assay_notes: Serum pharmacokinetics after intraperitoneal injection
Format: in vivo, Balb/c female mice
particulars: female, Balb/c, mouse, serum, ip, 100 mg/kg, 100 mg/kg intraperitoneal, serum; read-out: Maximum serum concentration (Cmax)

molecule: CC/C=C\C/C=C\C/C=C\C/C=C\C/C=C\C/C=C\CCC(=O)OC[C@H]1O[C@@H](Oc2cc(O)cc(O)c2C(=O)CCc2ccc(O)cc2)[C@H](O)[C@@H](O)[C@@H]1O [PZ-DHA, phloridzin docosahexaenoate]
Cmax / µM: 23.7

###

assay_notes: Tissue distribution of PZ-DHA and metabolites after intraperitoneal injection
Type: in vivo, Balb/c female mice
particulars: female, Balb/c, mouse, liver/serum, intraperitoneal, 100 mg/kg; 60 min; read-out: Tissue/serum ratio of PZ-DHA (Mean ± SD) Liver/serum
measure_name: Kp at 60 min

molecule: CC/C=C\C/C=C\C/C=C\C/C=C\C/C=C\C/C=C\CCC(=O)OC[C@H]1O[C@@H](Oc2cc(O)cc(O)c2C(=O)CCc2ccc(O)cc2)[C@H](O)[C@@H](O)[C@@H]1O [PZ-DHA, phloridzin docosahexaenoate]
measured: 4.68
